Source of measurements: ChEMBL document CHEMBL1150977

This section lists Kd readings for Death-associated protein kinase 3 (Homo sapiens, UniProt O43293).

Oc1ccc(-c2nc(-c3ccncc3)c(-c3ccc(F)cc3)[nH]2)cc1 [SB-202190]; > 10 µM

Q: Request the reported Kd associated with COCC(=O)NC/C=C/c1ccc2ncnc(Nc3ccc(Oc4ccc(C)nc4)c(C)c3)c2c1 [CP-724714]
Result: > 10 µM

Q: Request the reported Kd associated with NC(=O)c1ccc(-c2nc(-c3ccc4c(c3)OCO4)c(-c3ccccn3)[nH]2)cc1 [SB-431542]
Result: > 10 µM

Q: Request the reported Kd associated with Nc1nc(Nc2ccc(S(N)(=O)=O)cc2)nn1C(=O)c1c(F)cccc1F [JNJ-7706621]
Result: > 10 µM

====

This section lists Kd readings for Ribosomal protein S6 kinase alpha-3 (Homo sapiens, UniProt P51812).

Past entries and their recorded results:
Oc1ccc(-c2nc(-c3ccncc3)c(-c3ccc(F)cc3)[nH]2)cc1; > 10 µM
CCOc1cc2ncc(C#N)c(Nc3ccc(F)c(Cl)c3)c2cc1NC(=O)/C=C/CN(C)C; > 10 µM
COCC(=O)NC/C=C/c1ccc2ncnc(Nc3ccc(Oc4ccc(C)nc4)c(C)c3)c2c1; > 10 µM

Alright, here's another compound for you.
Q: Recorded Kd for NC(=O)c1ccc(-c2nc(-c3ccc4c(c3)OCO4)c(-c3ccccn3)[nH]2)cc1 with Ribosomal protein S6 kinase alpha-3 (Homo sapiens, UniProt P51812), please?
Result: > 10 µM

====

This section lists Kd readings for Mitogen-activated protein kinase 1 (Homo sapiens).

CCOc1cc2ncc(C#N)c(Nc3ccc(F)c(Cl)c3)c2cc1NC(=O)/C=C/CN(C)C; > 10 µM
Oc1ccc(-c2nc(-c3ccncc3)c(-c3ccc(F)cc3)[nH]2)cc1; > 10 µM
COCC(=O)NC/C=C/c1ccc2ncnc(Nc3ccc(Oc4ccc(C)nc4)c(C)c3)c2c1; > 10 µM

Alright, here's another compound for you.
Q: Recorded Kd for NC(=O)c1ccc(-c2nc(-c3ccc4c(c3)OCO4)c(-c3ccccn3)[nH]2)cc1 with Mitogen-activated protein kinase 1 (Homo sapiens), please?
Result: > 10 µM

====

Here, each record is paired with measured Kd data.
# systemTested: Mitogen-activated protein kinase 10 (Homo sapiens, UniProt P53779)
# Sequence (P53779 whole entry): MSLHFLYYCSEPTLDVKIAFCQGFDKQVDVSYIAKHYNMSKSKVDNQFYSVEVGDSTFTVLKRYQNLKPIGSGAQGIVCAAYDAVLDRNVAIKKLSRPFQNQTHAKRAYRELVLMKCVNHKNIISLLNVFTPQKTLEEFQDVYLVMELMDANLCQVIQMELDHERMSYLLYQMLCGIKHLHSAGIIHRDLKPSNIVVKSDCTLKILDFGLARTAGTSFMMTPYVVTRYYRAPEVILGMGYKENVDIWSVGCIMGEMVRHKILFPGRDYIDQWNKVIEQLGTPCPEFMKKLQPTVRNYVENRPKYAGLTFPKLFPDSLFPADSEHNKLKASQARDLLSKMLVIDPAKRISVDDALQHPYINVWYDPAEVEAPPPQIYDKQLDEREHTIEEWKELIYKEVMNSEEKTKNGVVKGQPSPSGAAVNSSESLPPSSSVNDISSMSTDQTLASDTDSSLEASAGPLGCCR

Past entries and their recorded results:
CCOc1cc2ncc(C#N)c(Nc3ccc(F)c(Cl)c3)c2cc1NC(=O)/C=C/CN(C)C; > 10 µM
NC(=O)c1ccc(-c2nc(-c3ccc4c(c3)OCO4)c(-c3ccccn3)[nH]2)cc1; > 10 µM

Q: Recorded Kd for COCC(=O)NC/C=C/c1ccc2ncnc(Nc3ccc(Oc4ccc(C)nc4)c(C)c3)c2c1 with Mitogen-activated protein kinase 10 (Homo sapiens, UniProt P53779), please?
Result: > 10 µM

Q: Recorded Kd for Oc1ccc(-c2nc(-c3ccncc3)c(-c3ccc(F)cc3)[nH]2)cc1 with Mitogen-activated protein kinase 10 (Homo sapiens, UniProt P53779), please?
Result: 0.042 µM

====

This section lists Kd readings for Non-receptor tyrosine-protein kinase TYK2 (Homo sapiens).

Past entries and their recorded results:
CCOc1cc2ncc(C#N)c(Nc3ccc(F)c(Cl)c3)c2cc1NC(=O)/C=C/CN(C)C [PELITINIB]; > 10 µM
COCC(=O)NC/C=C/c1ccc2ncnc(Nc3ccc(Oc4ccc(C)nc4)c(C)c3)c2c1 [CP-724714]; > 10 µM
CCN1CCN(Cc2ccc(NC(=O)Nc3ccc(Oc4cc(NC)ncn4)cc3)cc2C(F)(F)F)CC1 [AST-487]; 2.1 µM

Q: Request the reported Kd associated with Nc1nc(Nc2ccc(S(N)(=O)=O)cc2)nn1C(=O)c1c(F)cccc1F [JNJ-7706621]
Result: 0.032 µM

Q: Request the reported Kd associated with NC(=O)c1ccc(-c2nc(-c3ccc4c(c3)OCO4)c(-c3ccccn3)[nH]2)cc1 [SB-431542]
Result: > 10 µM

Q: Request the reported Kd associated with Oc1ccc(-c2nc(-c3ccncc3)c(-c3ccc(F)cc3)[nH]2)cc1 [SB-202190]
Result: > 10 µM

====

pKd: −log10 of the molar value.
This section lists pKd readings for Serine/threonine-protein kinase PLK1 (Homo sapiens).

NC(=O)c1ccc(-c2nc(-c3ccc4c(c3)OCO4)c(-c3ccccn3)[nH]2)cc1; < 5.00
Nc1nc(Nc2ccc(S(N)(=O)=O)cc2)nn1C(=O)c1c(F)cccc1F; 5.30
Oc1ccc(-c2nc(-c3ccncc3)c(-c3ccc(F)cc3)[nH]2)cc1; < 5.00
CCOc1cc2ncc(C#N)c(Nc3ccc(F)c(Cl)c3)c2cc1NC(=O)/C=C/CN(C)C; < 5.00

Alright, here's another molecule for you.
Q: Recorded pKd for COCC(=O)NC/C=C/c1ccc2ncnc(Nc3ccc(Oc4ccc(C)nc4)c(C)c3)c2c1 with Serine/threonine-protein kinase PLK1 (Homo sapiens), please?
Result: < 5.00

====

# systemTested: Ephrin type-B receptor 4 (Homo sapiens)
# Sequence (P54760 whole entry): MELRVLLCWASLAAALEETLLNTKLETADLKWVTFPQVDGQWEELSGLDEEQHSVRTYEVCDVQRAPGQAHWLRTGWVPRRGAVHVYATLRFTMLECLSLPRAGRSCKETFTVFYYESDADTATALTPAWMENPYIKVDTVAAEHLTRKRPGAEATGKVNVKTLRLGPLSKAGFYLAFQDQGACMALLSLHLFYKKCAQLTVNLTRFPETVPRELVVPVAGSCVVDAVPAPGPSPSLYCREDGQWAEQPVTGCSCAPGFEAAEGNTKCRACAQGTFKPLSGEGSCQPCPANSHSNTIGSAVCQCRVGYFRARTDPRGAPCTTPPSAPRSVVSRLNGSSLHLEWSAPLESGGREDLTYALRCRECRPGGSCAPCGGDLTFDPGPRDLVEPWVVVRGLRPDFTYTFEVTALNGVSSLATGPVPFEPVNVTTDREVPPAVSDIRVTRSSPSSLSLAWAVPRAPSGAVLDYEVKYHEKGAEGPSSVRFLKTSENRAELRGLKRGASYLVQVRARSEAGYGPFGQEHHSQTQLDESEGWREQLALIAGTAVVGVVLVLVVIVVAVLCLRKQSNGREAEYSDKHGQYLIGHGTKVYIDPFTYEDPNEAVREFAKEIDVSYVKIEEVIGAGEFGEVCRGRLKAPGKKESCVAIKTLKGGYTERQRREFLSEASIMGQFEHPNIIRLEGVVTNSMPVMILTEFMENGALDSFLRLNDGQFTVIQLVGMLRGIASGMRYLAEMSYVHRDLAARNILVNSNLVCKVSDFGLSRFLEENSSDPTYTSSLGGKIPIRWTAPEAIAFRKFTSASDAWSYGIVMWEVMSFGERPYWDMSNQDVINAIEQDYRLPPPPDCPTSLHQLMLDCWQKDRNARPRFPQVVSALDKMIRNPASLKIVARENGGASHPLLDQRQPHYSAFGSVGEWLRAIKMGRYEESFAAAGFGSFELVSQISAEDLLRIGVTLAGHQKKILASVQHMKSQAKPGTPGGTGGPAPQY
Here, each record is paired with measured Kd data.

Past entries and their recorded results:
COCC(=O)NC/C=C/c1ccc2ncnc(Nc3ccc(Oc4ccc(C)nc4)c(C)c3)c2c1; > 10 µM
NC(=O)c1ccc(-c2nc(-c3ccc4c(c3)OCO4)c(-c3ccccn3)[nH]2)cc1; > 10 µM
Oc1ccc(-c2nc(-c3ccncc3)c(-c3ccc(F)cc3)[nH]2)cc1; > 10 µM
Nc1nc(Nc2ccc(S(N)(=O)=O)cc2)nn1C(=O)c1c(F)cccc1F; > 10 µM

Alright, here's another compound for you.
Q: Recorded Kd for CCOc1cc2ncc(C#N)c(Nc3ccc(F)c(Cl)c3)c2cc1NC(=O)/C=C/CN(C)C with Ephrin type-B receptor 4 (Homo sapiens), please?
Result: 2.8 µM

====

This section lists pKd readings for Ribosomal protein S6 kinase alpha-2 (Homo sapiens).
pKd: −log10 of the molar value.

Past entries and their recorded results:
Nc1nc(Nc2ccc(S(N)(=O)=O)cc2)nn1C(=O)c1c(F)cccc1F; 6.39
Oc1ccc(-c2nc(-c3ccncc3)c(-c3ccc(F)cc3)[nH]2)cc1; < 5.00
CCOc1cc2ncc(C#N)c(Nc3ccc(F)c(Cl)c3)c2cc1NC(=O)/C=C/CN(C)C; < 5.00
NC(=O)c1ccc(-c2nc(-c3ccc4c(c3)OCO4)c(-c3ccccn3)[nH]2)cc1; < 5.00

Q: Recorded pKd for COCC(=O)NC/C=C/c1ccc2ncnc(Nc3ccc(Oc4ccc(C)nc4)c(C)c3)c2c1 with Ribosomal protein S6 kinase alpha-2 (Homo sapiens), please?
Result: < 5.00

====

Here, each record is paired with measured Kd data.
# systemTested: STE20-like serine/threonine-protein kinase (Homo sapiens, UniProt Q9H2G2)
# Sequence (Q9H2G2 whole entry): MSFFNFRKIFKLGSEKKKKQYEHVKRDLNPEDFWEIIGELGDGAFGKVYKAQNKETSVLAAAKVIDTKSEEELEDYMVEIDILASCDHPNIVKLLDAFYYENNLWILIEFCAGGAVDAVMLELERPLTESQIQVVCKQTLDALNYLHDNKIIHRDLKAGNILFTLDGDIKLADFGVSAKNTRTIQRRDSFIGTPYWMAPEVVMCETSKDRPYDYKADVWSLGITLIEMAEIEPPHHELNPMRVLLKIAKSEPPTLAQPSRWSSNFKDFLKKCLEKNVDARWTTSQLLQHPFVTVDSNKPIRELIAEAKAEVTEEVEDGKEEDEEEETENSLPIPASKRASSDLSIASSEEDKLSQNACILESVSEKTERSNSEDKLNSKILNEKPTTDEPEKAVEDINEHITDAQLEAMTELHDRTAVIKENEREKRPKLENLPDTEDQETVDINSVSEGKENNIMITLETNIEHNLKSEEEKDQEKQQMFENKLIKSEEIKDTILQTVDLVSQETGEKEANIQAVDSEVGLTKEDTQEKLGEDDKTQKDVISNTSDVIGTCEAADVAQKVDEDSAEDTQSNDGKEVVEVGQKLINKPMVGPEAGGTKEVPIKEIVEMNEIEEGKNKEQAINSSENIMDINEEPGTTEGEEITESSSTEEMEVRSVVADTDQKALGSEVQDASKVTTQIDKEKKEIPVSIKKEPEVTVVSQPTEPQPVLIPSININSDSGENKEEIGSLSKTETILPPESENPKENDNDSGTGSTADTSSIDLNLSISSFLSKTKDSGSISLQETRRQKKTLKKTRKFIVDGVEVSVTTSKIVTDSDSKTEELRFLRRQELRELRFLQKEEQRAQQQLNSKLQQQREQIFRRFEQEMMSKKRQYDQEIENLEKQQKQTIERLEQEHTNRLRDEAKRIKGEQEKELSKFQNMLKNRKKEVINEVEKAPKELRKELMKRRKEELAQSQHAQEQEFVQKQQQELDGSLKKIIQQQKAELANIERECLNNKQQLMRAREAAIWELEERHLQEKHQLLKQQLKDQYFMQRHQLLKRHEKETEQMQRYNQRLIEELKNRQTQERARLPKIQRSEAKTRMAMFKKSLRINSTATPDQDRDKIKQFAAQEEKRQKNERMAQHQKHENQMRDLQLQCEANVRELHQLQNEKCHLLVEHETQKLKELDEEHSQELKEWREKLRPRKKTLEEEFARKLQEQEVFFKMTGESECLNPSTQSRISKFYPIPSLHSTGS
Give just the numeric value; µM need not be written.

Oc1ccc(-c2nc(-c3ccncc3)c(-c3ccc(F)cc3)[nH]2)cc1; 3.2

Alright, here's another compound for you.
Q: Recorded Kd for Nc1nc(Nc2ccc(S(N)(=O)=O)cc2)nn1C(=O)c1c(F)cccc1F with STE20-like serine/threonine-protein kinase (Homo sapiens, UniProt Q9H2G2), please?
Result: 0.048
